test system: herpes simplex virus type 2 (HSV-2); experiment: In vitro HSV-2 bioassay: virucidal plaque assay (HEP-2 cells); format: cell-based, HSV-2 strain 333; conditions: Table 3; dilution 1:800
measurement-name: titer

smiles_record=CC/C=C\C/C=C\C/C=C\C/C=C\C/C=C\CCCC(=O)O measurement_name=titer obs_value="1.7 × 10^0"
smiles_record=CCC=CCC=CCC=CCC=CCC=CCCCC(=O)OC measurement_name=titer obs_value="4.5 × 10^1"
smiles_record=CCC=CCC=CCC=CCC=CCC=CCC=CCCC(=O)O measurement_name=titer obs_value=0
smiles_record=CCC=CCC=CCC=CCC=CCC=CCC=CCCC(=O)OC measurement_name=titer obs_value=TNTC

====

Overview of reported titer across a group of molecules:
tested on: herpes simplex virus type 2 (HSV-2); assay: In vitro HSV-2 bioassay: virucidal plaque assay (HEP-2 cells); type: cell-based, HSV-2 strain 333; conditions: Table 3; dilution 1:10; control titer 4.5 × 10^3
measurement-name: titer

smiles_record=CCC=CCC=CCC=CCC=CCC=CCCCC(=O)OC obs_value=0
smiles_record=CCC=CCC=CCC=CCC=CCC=CCC=CCCC(=O)O obs_value=0
smiles_record=CC/C=C\C/C=C\C/C=C\C/C=C\C/C=C\CCCC(=O)O obs_value=0

====

system: herpes simplex virus type 2 (HSV-2); assay: In vitro HSV-2 bioassay: virucidal plaque assay (HEP-2 cells); type: cell-based, HSV-2 strain 333; details: Table 3; dilution 1:100
measurement-name: titer

smiles_record=CCC=CCC=CCC=CCC=CCC=CCCCC(=O)OC obs_value="8.3 × 10^0"
smiles_record=CC/C=C\C/C=C\C/C=C\C/C=C\C/C=C\CCCC(=O)O obs_value="1.7 × 10^0"
smiles_record=CCC=CCC=CCC=CCC=CCC=CCC=CCCC(=O)O obs_value=0
smiles_record=CCC=CCC=CCC=CCC=CCC=CCC=CCCC(=O)OC obs_value="9.7 × 10^2"

====

system: herpes simplex virus type 2 (HSV-2); experiment: In vitro HSV-2 bioassay: virucidal plaque assay (HEP-2 cells); format: cell-based, HSV-2 strain 333; conditions: Table 3; dilution 1:3200
measurement-name: titer

smiles_record=CCC=CCC=CCC=CCC=CCC=CCCCC(=O)OC obs_value="1.4 × 10^2"
smiles_record=CCC=CCC=CCC=CCC=CCC=CCC=CCCC(=O)O obs_value=0
smiles_record=CCC=CCC=CCC=CCC=CCC=CCC=CCCC(=O)OC obs_value=TNTC
smiles_record=CC/C=C\C/C=C\C/C=C\C/C=C\C/C=C\CCCC(=O)O obs_value="1.7 × 10^0"

====

system: herpes simplex virus type 2 (HSV-2); assay: In vitro HSV-2 bioassay: virucidal plaque assay (HEP-2 cells); format: cell-based, HSV-2 strain 333; conditions: Table 3; dilution 1:100
measurement-name: plaque count

smiles_record=CCC=CCC=CCC=CCC=CCC=CCC=CCCC(=O)O obs_value=0
smiles_record=CC/C=C\C/C=C\C/C=C\C/C=C\C/C=C\CCCC(=O)O obs_value=0.5
smiles_record=CCC=CCC=CCC=CCC=CCC=CCC=CCCC(=O)OC obs_value=293
smiles_record=CCC=CCC=CCC=CCC=CCC=CCCCC(=O)OC obs_value=2.5

====

system: herpes simplex virus type 2 (HSV-2); test: In vitro HSV-2 bioassay: virucidal plaque assay (HEP-2 cells); type: cell-based, HSV-2 strain 333; conditions: Table 1; dilution 1:10; TNTC = too numerous to count
measurement-name: plaque count

molecule="C=C1CC[C@H](O)C/C1=C/C=C1\\CCC[C@]2(C)[C@@H]([C@H](C)/C=C/[C@H](C)C(C)C)CC[C@@H]12 [Vitamin D2, reference compound]" obs_value=TNTC
molecule="CCCCCCCC/C=C\\CCCCCCCC(=O)O [Oleic acid, reference compound]" obs_value=36
molecule="CCCCCCCCCCCCCCCC(=O)O [Palmitic acid, reference compound]" obs_value=TNTC
molecule="CCCCCCCCCCCCCC(=O)O [Myristic acid, reference compound]" obs_value=TNTC
